TEST SYSTEM: GABA-A receptor; anion channel
ASSAY REMARKS: Affinity for GABA-A receptor alpha by inhibiting binding of [3H]muscimol to rat brain synaptosomes
pKi: −log10 of the molar value.
OUTCOME MEASURE: pKi

Reference set (8 entries):
>  <CPD SMILES>
CCCCCCCCc1c(O)noc1C1CCNCC1

>  <NUMERIC VALUE>
5.74

$$$$
>  <CPD SMILES>
Oc1noc(C2CCNCC2)c1CCCc1ccccc1

>  <NUMERIC VALUE>
5.96

$$$$
>  <CPD SMILES>
Oc1noc(C2CCNCC2)c1CCC(c1ccccc1)c1ccccc1

>  <NUMERIC VALUE>
7.17

$$$$
>  <CPD SMILES>
Oc1noc(C2CCNCC2)c1CCc1ccccc1

>  <NUMERIC VALUE>
5.30

$$$$
>  <CPD SMILES>
Oc1noc(C2CCNCC2)c1CCc1cccc2ccccc12

>  <NUMERIC VALUE>
5.77

$$$$
>  <CPD SMILES>
CCCCCCc1c(O)noc1C1CCNCC1

>  <NUMERIC VALUE>
5.35

$$$$
>  <CPD SMILES>
Oc1noc(C2CCNCC2)c1C(c1ccccc1)c1ccccc1

>  <NUMERIC VALUE>
6.02

$$$$
>  <CPD SMILES>
Oc1noc(C2CCNCC2)c1CCCC(c1ccccc1)c1ccccc1

>  <NUMERIC VALUE>
6.15

$$$$

[1] Oc1noc(C2CCNCC2)c1Cc1cccc2ccccc12
[2] CC1(c2cc(O)no2)CCNCC1
[3] Oc1noc(C2CCNCC2)c1Cc1ccc(-c2ccccc2)cc1
[4] Oc1noc(C2CCNCC2)c1CC1CCCCC1
stdin: Order the records so the highest pKi appears first and the lowest last. Your reply should list the labels following the order given in the request.
stdout: 1, 3, 4, 2
(1: 7.00, 3: 6.40, 4: 5.31, 2: 4.43)

----------
TEST SYSTEM: Gamma-aminobutyric acid type B receptor subunit 1 (Rattus norvegicus)
ASSAY REMARKS: Affinity for GABA-B receptor by inhibiting GABA uptake into rat brain synaptosomes
OUTCOME MEASURE: IC50

Below: 8 compounds and their reported IC50.
>  <CPD SMILES>
CCCCc1c(O)noc1C1CCNCC1

>  <IC50>
> 100 µM

$$$$
>  <CPD SMILES>
Oc1noc(C2CCNCC2)c1Cc1ccc2ccccc2c1

>  <IC50>
> 10 µM

$$$$
>  <CPD SMILES>
CCCCCCc1c(O)noc1C1CCNCC1

>  <IC50>
> 100 µM

$$$$
>  <CPD SMILES>
Oc1noc(C2CCNCC2)c1Cc1c2ccccc2cc2ccccc12

>  <IC50>
> 10 µM

$$$$
>  <CPD SMILES>
Oc1noc(C2CCNCC2)c1CCCc1ccccc1

>  <IC50>
> 100 µM

$$$$
>  <CPD SMILES>
CCCc1c(O)noc1C1CCNCC1

>  <IC50>
> 100 µM

$$$$
>  <CPD SMILES>
CC1(c2cc(O)no2)CCNCC1

>  <IC50>
> 100 µM

$$$$
>  <CPD SMILES>
Oc1noc(C2CCNCC2)c1CC(c1ccccc1)c1ccccc1

>  <IC50>
> 100 µM

$$$$

stdin: Which value of IC50 has been reported for `Oc1noc(C2CCNCC2)c1CCc1ccccc1` in the records?
stdout: > 10 µM

stdin: Again, but for `Oc1noc(C2CCNCC2)c1CC1CCCCC1`
stdout: > 100 µM

stdin: Similarly, `Oc1noc(C2CCNCC2)c1Cc1ccc(-c2ccccc2)cc1` ?
stdout: > 10 µM

stdin: Same thing, different compound: `Oc1noc(C2CCNCC2)c1CCc1ccc2ccccc2c1`
stdout: > 10 µM

stdin: Moving on to the next compound: `CCc1c(O)noc1C1CCNCC1`
stdout: > 100 µM

----------
TEST SYSTEM: Gamma-aminobutyric acid type B receptor subunit 1 (Rattus norvegicus, UniProt Q9Z0U4)
Sequence (Q9Z0U4 whole entry): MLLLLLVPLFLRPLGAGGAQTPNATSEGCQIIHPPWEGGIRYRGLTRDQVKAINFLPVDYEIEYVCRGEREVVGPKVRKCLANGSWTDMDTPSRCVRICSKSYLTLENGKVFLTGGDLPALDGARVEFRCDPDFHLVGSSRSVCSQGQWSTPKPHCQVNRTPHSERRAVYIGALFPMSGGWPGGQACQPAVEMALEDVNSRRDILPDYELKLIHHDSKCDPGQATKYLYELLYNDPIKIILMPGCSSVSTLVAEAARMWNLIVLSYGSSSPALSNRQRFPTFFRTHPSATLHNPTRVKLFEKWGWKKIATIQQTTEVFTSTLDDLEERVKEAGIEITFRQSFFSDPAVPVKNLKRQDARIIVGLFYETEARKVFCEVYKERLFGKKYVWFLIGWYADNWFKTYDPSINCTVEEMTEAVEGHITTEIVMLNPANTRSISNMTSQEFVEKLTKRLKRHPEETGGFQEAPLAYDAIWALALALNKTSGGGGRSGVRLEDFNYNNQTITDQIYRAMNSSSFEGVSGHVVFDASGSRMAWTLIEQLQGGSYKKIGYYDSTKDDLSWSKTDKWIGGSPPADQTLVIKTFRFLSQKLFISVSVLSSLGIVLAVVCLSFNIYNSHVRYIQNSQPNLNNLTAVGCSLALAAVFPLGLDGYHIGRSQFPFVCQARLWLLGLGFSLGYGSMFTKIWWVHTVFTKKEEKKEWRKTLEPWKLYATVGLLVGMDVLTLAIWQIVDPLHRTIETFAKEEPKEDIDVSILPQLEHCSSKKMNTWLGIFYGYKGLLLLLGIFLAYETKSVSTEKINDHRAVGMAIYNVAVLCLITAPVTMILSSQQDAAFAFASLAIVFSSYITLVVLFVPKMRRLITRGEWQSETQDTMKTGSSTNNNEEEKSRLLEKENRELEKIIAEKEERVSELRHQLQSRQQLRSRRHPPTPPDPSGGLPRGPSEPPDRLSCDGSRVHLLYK
ASSAY REMARKS: Affinity for GABA-B receptor by inhibiting GABA uptake into rat brain synaptosomes
OUTCOME MEASURE: IC50

Examples with their reported IC50 follow.
>  <CPD SMILES>
Oc1noc(C2CCNCC2)c1CCc1cccc2ccccc12

>  <TEST SYSTEM>
Gamma-aminobutyric acid type B receptor subunit 1 (Rattus norvegicus, UniProt Q9Z0U4)

>  <IC50>
> 10 µM

$$$$
>  <CPD SMILES>
Oc1noc(C2CCNCC2)c1CCC(c1ccccc1)c1ccccc1

>  <TEST SYSTEM>
Gamma-aminobutyric acid type B receptor subunit 1 (Rattus norvegicus, UniProt Q9Z0U4)

>  <IC50>
> 10 µM

$$$$
>  <CPD SMILES>
Oc1noc(C2CCNCC2)c1Cc1cccc2ccccc12

>  <TEST SYSTEM>
Gamma-aminobutyric acid type B receptor subunit 1 (Rattus norvegicus, UniProt Q9Z0U4)

>  <IC50>
> 10 µM

$$$$
>  <CPD SMILES>
Oc1noc(C2CCNCC2)c1C(c1ccccc1)c1ccccc1

>  <TEST SYSTEM>
Gamma-aminobutyric acid type B receptor subunit 1 (Rattus norvegicus, UniProt Q9Z0U4)

>  <IC50>
> 10 µM

$$$$
>  <CPD SMILES>
CCCCCCCCc1c(O)noc1C1CCNCC1

>  <TEST SYSTEM>
Gamma-aminobutyric acid type B receptor subunit 1 (Rattus norvegicus, UniProt Q9Z0U4)

>  <IC50>
> 100 µM

$$$$

stdin: Field request: IC50 | item: `Oc1noc(C2CCNCC2)c1Cc1ccccc1`
stdout: > 100 µM

stdin: Request: `Oc1noc(C2CCNCC2)c1CCCC(c1ccccc1)c1ccccc1`
stdout: > 100 µM

stdin: Try this molecule next: `Cc1c(O)noc1C1CCNCC1`
stdout: > 100 µM
